Entries and their koff
Biological target: T1, recombinant MBP-EDIII of DENV1 (Dengue virus 1, strain Guiana/FGA89/1989, strain)
T1 construct: also called DENV1 EDIII; envelope protein domain III of DENV1; not shown: MBP, N-terminal, kept
Experiment: SPR
Details: both partners purified
quantity-measured: koff (s⁻¹)

binder: 1A1D-2 Fab A54E.H (Fab, V domains shown) VH: EVQLQQSGAELVKPGASVKLSCTASGFNIKDTYMHWVKQRPEQGLEWIGRIDPENGYSKYDPKFQGKATITADTSSNAAYLQLSSLTSEDTAVYFCARDYEGFAYWGQGTLVTVSS VL: DIVLTQSPASLAVSLGQRATISCRASESVVRYGNSFMHWYQQKPGQPPKLLIYRASSLESGIPTRFSGSGSRTDFTLTINPVEADDVATYYCQQTNVDPWAFGGGTKLEIK
assay-result: 0.00617
//
binder: 1A1D-2 Fab Y105R.H (Fab, V domains shown) VH: EVQLQQSGAELVKPGASVKLSCTASGFNIKDTYMHWVKQRPEQGLEWIGRIDPANGYSKYDPKFQGKATITADTSSNAAYLQLSSLTSEDTAVYFCARDYEGFARWGQGTLVTVSS VL: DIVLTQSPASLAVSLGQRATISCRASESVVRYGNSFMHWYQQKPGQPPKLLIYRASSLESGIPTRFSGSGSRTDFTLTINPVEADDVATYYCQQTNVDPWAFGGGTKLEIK
assay-result: 0.00185
//
binder: 1A1D-2 Fab A54E-Y105R double mutant (Fab, V domains shown) VH: EVQLQQSGAELVKPGASVKLSCTASGFNIKDTYMHWVKQRPEQGLEWIGRIDPENGYSKYDPKFQGKATITADTSSNAAYLQLSSLTSEDTAVYFCARDYEGFARWGQGTLVTVSS VL: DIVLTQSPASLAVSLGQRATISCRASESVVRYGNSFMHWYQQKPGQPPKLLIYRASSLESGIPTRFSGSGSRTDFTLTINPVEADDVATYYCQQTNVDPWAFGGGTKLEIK
assay-result: 0.0012
//
binder: 1A1D-2 Fab WT (Fab, V domains shown, also called 1A1D-2 WT) VH: EVQLQQSGAELVKPGASVKLSCTASGFNIKDTYMHWVKQRPEQGLEWIGRIDPANGYSKYDPKFQGKATITADTSSNAAYLQLSSLTSEDTAVYFCARDYEGFAYWGQGTLVTVSS VL: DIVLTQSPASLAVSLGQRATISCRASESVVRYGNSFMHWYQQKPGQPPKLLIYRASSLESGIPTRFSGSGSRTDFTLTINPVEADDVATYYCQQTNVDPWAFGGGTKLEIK
assay-result: 0.00755
